Molecular target: T1, biotin-conjugated IL-9-Fc (Biotin-IL-9-Fc) (UniProt P15248 19-144, biotin-conjugated (sites not given))
T1 construct: range 19-144; also called Fc-IL-9 recombinant protein; Fc-IL-9; not shown: Fc tag (Fc2 in the vector name pLVX-Fc2-IL9 (19-144)-Puro)
T1 sequence (P15248 19-144 limits assumed, form in doubt): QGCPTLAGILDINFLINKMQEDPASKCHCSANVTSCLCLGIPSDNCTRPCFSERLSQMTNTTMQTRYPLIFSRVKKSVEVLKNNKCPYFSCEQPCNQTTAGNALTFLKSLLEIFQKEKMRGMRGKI
Test: flow cytometry blocking assay (IL-9-IL-9R blocking determination): serially diluted chimeric antibody against the binding of Biotin-IL-9-Fc to 293-IL-9R cells (IL-9R), MFI; unit taken from the x axis, the table prints none
OBSERVED_PROPERTY: EC50 (µg/mL)
Kindly provide the numeric value in µg/mL only, without the unit symbol.

Challenge: Record request: EC50 value, item 22-F2-E9-C8 chimeric antibody (CA4) (antibody, V domains shown) VH: EVQVVESGPGLVKPSQSLSLTCSVTGSSFTSGYYWNWIRQFPGNKLEWMGYIRYDGSNNYNPSLKNRISITRDTSKNQFFLKLNSVTSEDTATYYCASYGSSYDAMDYWGQGTSVTVSS VL: DIQLTQPPASLSASVGETVTITCRASENIDSYLAWYQQKQGKSPQLLVYAATLLADGVPSRFSGSGSGTQYSLKINSLQSEDVARYYCQHYYSTPWTFGGGTKLELK
Response given: 2.96

Challenge: If you can, please state the reported EC50 value of 29-B9-F5-B6 chimeric antibody (CA3) (antibody, V domains shown) VH: EVQLQESGAELMKPGASVKISCKATGYTFSSYWIEWVKQRPGHGLEWIGQILPGSGSNNYNERFKGKATFTADTSSNTAYMQLSSLTSEDSAVYYCAREGNYGEAWFAYWGQGTLVTVSA VL: DILLTQSPATLSVTPGDSVSLSCRASQSISNNLHWYQQKSHESPRLLIKYASQSMSGIPSRFSGSGSGTDFTLSINSVETEDFGMYFCQQSNSWPLTFGAGTKLELK .
Response given: 8.47

Challenge: Query: EC50; subject: 31-D6-B8-B8 chimeric antibody (CA2) (antibody, V domains shown) VH: EVQLKESGPGLVKPSQSLSLTCSVTGYSSTSGYYWNWIRQFPGNKLEWMGYIRYDGSSNHNPSLKNRISITRDTSKNQFFLKLNSVTTEDTATYYCASYGITYDAMDYWGQGTSVTVSS VL: DIQLTQPPASLSASVGETVTITCRASENIDSYLAWYQQKQGKSPQLLVYAATLLADGVPSRFSGSGSGTQYSLKINSLQSEDVARYYCQHYYSTPWTFGGGTKLELK
Response given: 15.8

Challenge: Look up EC50: 38-D8-C7-G9 chimeric antibody (CA1) (antibody, V domains shown, also called CA1 antibody; human-mouse chimeric antibody CA1) VH: EVQLKQSGAELMKPGASVKLSCKATGYTFTGYWIEWVKLRPGHGLEWIGEILPGSGSTNYNEEFKGKATFTADTSSNTAYMQLNSLTTEDSAIYYCARRTYYYGIPEDYWGQGTSVTVSS VL: DIVMTQSQKFMSTSVGDRVSVTCKASQNVGTNVAWHQQKPGQSPKPLIYSASYRYSGVPDRFTGSGSGTDFTLTISNVQSEDLAEYFCQQYNSYPLTFGAGTKLELK
Response given: 5.96
